- System: OVCAR-8
- PROCEDURE SUMMARY: NCI tumour cell line growth inhibition, 48 h
The source made the active and inactive calls. No stated cut-off is given here; in the data, active = GI50 up to about 1.1 µM and inactive = higher.
Labels: active, inactive

COMPOUND: O=C1C(=O)N(c2ccc(Cl)cc2Cl)C(=O)C(=O)C1c1nc2ccccc2s1
CAT: inactive

COMPOUND: N#Cc1ccc(-c2nc3c(N)nc(-c4ccccc4)nc3o2)cc1
CAT: inactive

COMPOUND: Cc1ccc(/C=C/C(=O)c2sc(-n3nc(-c4ccccc4)cc3-c3ccccc3)nc2C)cc1
CAT: inactive

COMPOUND: O=C(O)c1ccccc1-c1ccccc1C(=O)Nc1ccc2c(c1)Cc1cc(F)ccc1-2
CAT: inactive

COMPOUND: CCOC(=O)NC(=O)c1cn(CCCOC(=O)CCCCCCCCC(=O)OCCCn2cc(C(=O)NC(=O)OCC)c(=O)[nH]c2=O)c(=O)[nH]c1=O
CAT: inactive

COMPOUND: O=P1(C(O)/C=C/c2ccccc2)N(Cc2ccccc2)[C@@H]2CCCC[C@H]2N1Cc1ccccc1 (some centres not stated)
CAT: inactive

COMPOUND: Clc1ccc(C2=CCN3CC=C(c4ccc(Cl)cc4)C23)cc1
CAT: inactive

COMPOUND: CCOC(=O)c1c(-c2ccccc2)c(C(OC(c2ccccc2)c2c(-c3ccccc3)c(C(=O)OCC)n3ccccc23)c2ccccc2)c2ccccn12 (configuration not stated)
CAT: inactive

COMPOUND: O=C1OCc2c1cc1ccc(O)c(OC3OC(CO)C(O)C(O)C3O)c1c2-c1ccc2c(c1)OCO2 (configuration not stated)
CAT: inactive

COMPOUND: O=C1/C(=C/c2ccccc2)CN(C(=O)C(Cl)(Cl)Cl)C/C1=C\c1ccccc1
CAT: inactive

COMPOUND: COC(=O)c1ncc2c(=O)[nH]c3ccccc3c2c1C(=O)OC
CAT: inactive

COMPOUND: CCOC(=O)c1nc2ccc(C(F)(F)F)cc2nc1NCc1ccc(Cl)c(Cl)c1
CAT: inactive

COMPOUND: CC1(C)OC[C@@H](O)[C@H](Br)CO1
CAT: inactive

COMPOUND: CC(=O)OCCCCn1cnc2c(Cl)nc(Nc3ccccc3)nc21
CAT: inactive

COMPOUND: C[C@@]12CCC(=O)C=C1CC[C@H]1C2=CC[C@]2(C)C1CC[C@@]2(C)O (some centres not stated)
CAT: inactive

COMPOUND: CN(CCCNC(=O)c1n[nH]c2c1ccc1ccccc12)CCCNC(=O)c1n[nH]c2c1ccc1ccccc12
CAT: inactive

COMPOUND: CCCCCCCCCCCCCCCC(=O)N(CCCCCCCCCCC(=O)O)CC(O)C(O)C(OC1OC(CO)C(O)C(O)C1O)C(O)CO (configuration not stated)
CAT: inactive

COMPOUND: CC(=O)Oc1c2c(c(OC(C)=O)c3c1n(C(C)=O)c1ccccc1n3C(C)=O)n(C(C)=O)c1ccccc1n2C(C)=O
CAT: inactive

COMPOUND: FC(F)(F)C1(C(F)(F)F)C2CCC3(CC(F)(F)C(F)(F)S3)C1C2 (configuration not stated)
CAT: inactive

COMPOUND: c1ccc(-c2ccc(-c3cc4ccccc4[nH]3)cc2)cc1
CAT: inactive

COMPOUND: O=C1O/C(=C(/Cl)c2cccc3ccccc23)c2ccccc21
CAT: inactive

COMPOUND: CCOC(=O)/C=C(\C(=O)OCC)n1cc(C)c(=O)n(Cc2cnnn2CCCCOC(C)=O)c1=O
CAT: inactive

COMPOUND: CCOC(=O)/C(C(N)=O)=C(O)/C(O)=C/C(=O)c1ccc(Cl)cc1
CAT: inactive

COMPOUND: C[n+]1c2ccccc2c(/C=N\NS(=O)(=O)c2ccc(Cl)cc2)c2ccccc21
CAT: inactive

COMPOUND: COc1ccc(C(=O)O)c(Cc2cccc3ccccc23)c1
CAT: inactive

COMPOUND: N#Cc1c(N)nc2c(C#N)c(N)cc3c2c1Oc1ccccc1-3
CAT: inactive

COMPOUND: CN(C)C(=O)/N=c1\ss/c(=N\C(=S)N(C)C)n1-c1ccccc1
CAT: inactive

COMPOUND: C[C@]12CC[C@H](O[C@@H]3O[C@H](CO[C@@H]4O[C@H](CO)[C@@H](O)[C@H](O)[C@H]4O)[C@@H](O)[C@H](O)[C@H]3O)C[C@@H]1CC[C@@H]1[C@@H]2CC[C@]2(C)[C@@H](C3=CC(=O)OC3)CC[C@]12O
CAT: inactive

COMPOUND: CN(COC(=O)C(C)(C)C)c1nc(N(C)COC(=O)C(C)(C)C)nc(N(C)COC(=O)C(C)(C)C)n1
CAT: inactive

COMPOUND: CN(C)C(=S)N=C(Nc1ccccc1)Nc1ccccc1
CAT: inactive

COMPOUND: COc1cc2c(cc1O)CC[C@@H]1C2CC[C@@]2(C)C1CC[C@@H]2O (some centres not stated)
CAT: inactive

COMPOUND: CCOC(=O)c1cc(-c2ccc(-c3cc(C(=O)OCC)c(C#N)c(N)c3C#N)cc2)c(C#N)c(N)c1C#N
CAT: inactive

COMPOUND: CNn1c(C)n[nH]c1=O
CAT: inactive

COMPOUND: Cc1cc(NS(=O)(=O)c2ccc(Nc3c4ccccc4nc4c(C(=O)NCCO)cccc34)cc2)no1
CAT: inactive

COMPOUND: O=C(CSCC(=O)N/N=C/c1ccccc1)N/N=C\c1ccccc1
CAT: inactive

COMPOUND: COc1ccc2[nH]c3c(C)c4ccnc(NCCCN(C)CCCNc5ccc6ncn7c8ccccc8c(=O)c5c67)c4c(C)c3c2c1
CAT: active

COMPOUND: CC1/C(=N\O)CC(c2ccccc2)N(C)C1c1ccccc1 (configuration not stated)
CAT: inactive
